Origin of values: paper PMC6804419

molecular target: α-amylase from Aspergillus oryzae (Aspergillus oryzae)
In this section we review reported IC50 values for a set of molecules.
REPORTED_PROPERTY: IC50 (µM)

[[record]]
molecule = "CCn1cc(C(=O)CC(c2cccc(Br)c2)C2C(=O)N(C)C(=O)N(C)C2=O)c2ccccc21 (stereo not shown)"
reported_value = 86.4

[[record]]
molecule = "CCn1cc(C(=O)CC(c2ccc(C(F)(F)F)cc2)C2C(=O)N(C)C(=O)N(C)C2=O)c2ccccc21 (stereo not shown)"
reported_value = 47.1

[[record]]
molecule = "CCn1cc(C(=O)CC(c2ccc(OC)cc2)C2C(=O)N(C)C(=O)N(C)C2=O)c2ccccc21 (stereo not shown)"
reported_value = 88.4

[[record]]
molecule = "CCn1cc(C(=O)CC(c2ccc(F)cc2)C2C(=O)N(C)C(=O)N(C)C2=O)c2ccccc21 (stereo not shown)"
reported_value = 86.4

